test system: NCI-H2342; test: relative viability (nuclei count vs DMSO), 5 days (fraction); higher = more cells survive; details: first compound 0.253 µM
// boundary case: relative viability equal to 0.6 maps to Not fulfilled; strictly smaller maps to Fulfilled

COc1nc(C)cnc1NS(=O)(=O)c1cccnc1-c1ccc(-c2nnco2)cc1 [Zibotentan] + CC(=O)Nc1cccc(-n2c(=O)n(C3CC3)c(=O)c3c(Nc4ccc(I)cc4F)n(C)c(=O)c(C)c32)c1 [Trametinib] (partner 0.02 µM) :: Not fulfilled
COc1nc(C)cnc1NS(=O)(=O)c1cccnc1-c1ccc(-c2nnco2)cc1 [Zibotentan] + NC(=O)Nc1cc(-c2cccc(F)c2)sc1C(=O)N[C@H]1CCCNC1 [AZD7762] (partner 0.2 µM) :: Fulfilled
COc1nc(C)cnc1NS(=O)(=O)c1cccnc1-c1ccc(-c2nnco2)cc1 [Zibotentan] + CC(=O)c1c(C)c2cnc(Nc3ccc(N4CCNCC4)cn3)nc2n(C2CCCC2)c1=O [Palbociclib] (partner 0.5 µM) :: Fulfilled
O=c1cc(-c2cccc3c2Sc2ccccc2S3)oc(N2CCOCC2)c1 + O=C(c1cc(Cc2n[nH]c(=O)c3ccccc23)ccc1F)N1CCN(C(=O)C2CC2)CC1 [Olaparib] (partner 8 µM) :: Fulfilled
O=c1cc(-c2cccc3c2Sc2ccccc2S3)oc(N2CCOCC2)c1 + N=C(N)NC(=N)NCCc1ccccc1 [Phenformin] (partner 250 µM) :: Not fulfilled

Proceed to the following item.
Is relative viability strictly under 0.6 for the entry COc1nc(C)cnc1NS(=O)(=O)c1cccnc1-c1ccc(-c2nnco2)cc1 [Zibotentan] + Nc1nc2[nH]cc(CCc3ccc(C(=O)N[C@@H](CCC(=O)O)C(=O)O)cc3)c2c(=O)[nH]1 [Pemetrexed] (partner 0.2 µM) ?
Not fulfilled
